# STUDY_TARGET: NS3h helicase (Hepatitis C virus genotype 1b, UniProt Q9WMX2)
# Sequence (Q9WMX2 1190-1657 limits assumed): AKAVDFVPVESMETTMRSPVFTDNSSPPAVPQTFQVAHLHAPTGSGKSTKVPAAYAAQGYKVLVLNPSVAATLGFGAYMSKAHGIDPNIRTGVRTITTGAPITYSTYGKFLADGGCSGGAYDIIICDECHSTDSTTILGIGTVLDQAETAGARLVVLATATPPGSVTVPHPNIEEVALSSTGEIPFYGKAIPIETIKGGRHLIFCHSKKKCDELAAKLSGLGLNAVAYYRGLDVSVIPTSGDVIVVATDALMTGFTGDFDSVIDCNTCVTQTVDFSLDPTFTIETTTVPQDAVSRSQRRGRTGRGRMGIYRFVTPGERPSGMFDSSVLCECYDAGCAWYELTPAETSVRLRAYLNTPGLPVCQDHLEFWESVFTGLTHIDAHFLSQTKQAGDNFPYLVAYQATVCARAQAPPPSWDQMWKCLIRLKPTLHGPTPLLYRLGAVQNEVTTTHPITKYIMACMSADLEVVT
ASSAY_METRIC: IC50

Incoming: I'd like to know its IC50. The molecule in question is O=c1c2ccccc2[se]n1-c1ccccc1
Outgoing: ~1000 nM

----------
# STUDY_TARGET: HCV NS3h (Hepatitis C virus genotype 1b)
# Sequence (Q9WMX2 1190-1657 limits assumed): as above
# PROTOCOL_NOTES: FP-based binding assay, NS3h displacement from Cy5-dT15 DNA
# Set-up: species or system hepatitis C virus genotype 1b (con1)
# MEASUREMENT_SETUP: IC50 DNA (Cy5-dT15–NS3h complex), Figure 1C titration, n = 3
ASSAY_METRIC: IC50

Incoming: I'd like to know its IC50. The compound in question is O=c1c2ccccc2[se]n1-c1ccccc1
Outgoing: ~1000 nM

----------
# STUDY_TARGET: UniProt:Q9WMX2
# PROTOCOL_NOTES: FP-based binding assay, NS3h displacement from Cy5-dT15 DNA
# Design: species or system hepatitis C virus genotype 1b (con1)
# MEASUREMENT_SETUP: 100 μM of each compound
ASSAY_METRIC: NS3h (% I): percent inhibition of NS3h binding to Cy5-dT15 (%)
Expressed in %, but write only the number.

Incoming: I'd like to know its NS3h (% I): percent inhibition of NS3h binding to Cy5-dT15. The compound in question is C=CC1=C(C(=O)O)N2C(=O)[C@@H](NC(=O)C(=NO)c3csc(N)n3)[C@H]2SC1
Outgoing: 11

Incoming: Could you do the same for C=CC1=C(C(=O)O)N2C(=O)[C@@H](NC(=O)C(=NOCC(=O)O)c3csc(N)n3)[C@H]2SC1.O , please?
Outgoing: 28

Incoming: Could you do the same for CS(=O)(=O)Nc1ccc(Cc2noc(-c3ccc4[nH]cc(CCN)c4c3)n2)cc1.O , please?
Outgoing: 3

Incoming: Could you do the same for CC(O)CO.N[C@@H](C(=O)N[C@@H]1C(=O)N2C(C(=O)O)=C(CSc3cn[nH]n3)CS[C@H]12)c1ccc(O)cc1 , please?
Outgoing: 22

----------
# STUDY_TARGET: E. coli SSB (Escherichia coli, UniProt P0AGE0)
# Sequence (P0AGE0 2-178 limits assumed): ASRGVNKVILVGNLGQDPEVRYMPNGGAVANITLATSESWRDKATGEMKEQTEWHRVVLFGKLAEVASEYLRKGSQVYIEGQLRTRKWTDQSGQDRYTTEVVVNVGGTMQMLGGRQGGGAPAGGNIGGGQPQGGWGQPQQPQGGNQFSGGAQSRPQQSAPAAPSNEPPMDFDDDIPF
# PROTOCOL_NOTES: FP-based binding assay with SSB in place of NS3h
# MEASUREMENT_SETUP: read-out: SSB (% I): percent inhibition of SSB binding to Cy5-dT15
Counter-ions that a name gives are not always drawn.
Everything with inhibition at 100 µM lower than 70% is no; everything else, including exactly 70%, is yes.

Incoming: Form field: inhibition at 100 µM at least 70%? Entry: CN(C)[C@@H]1C(O)=C(C(=O)NCN2CCCC2)C(=O)[C@@]2(O)C(O)=C3C(=O)c4c(O)cccc4[C@@](C)(O)[C@H]3C[C@@H]12
Outgoing: no

Incoming: Could you do the same for COc1cccc2c1C(=O)c1c(O)c3c(c(O)c1C2=O)C[C@@](O)(C(=O)CO)C[C@@H]3O[C@H]1C[C@H](N)[C@H](O)[C@H](C)O1 [Doxorubicin Hydrochloride] , please?
Outgoing: yes

Incoming: Could you do the same for O=C1c2c(O)ccc(O)c2C(=O)c2c(NCCNCCO)ccc(NCCNCCO)c21 , please?
Outgoing: yes

Incoming: Could you do the same for CCCCCCCCCOc1ccc2[nH]cc(CCN)c2c1 , please?
Outgoing: no

Incoming: Could you do the same for O=c1c2ccccc2[se]n1-c1ccccc1 , please?
Outgoing: no

Values from paper PMC4201343
